Assay: qHTS assay to identify small molecule HDAC inhibitors (AID 1259364);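 also: wild-type HCT-116 cells with endogenous class I/II HDAC activity; top concentration of the series differs between compounds; nearly all actives have a fitted effect of over 45% in size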
Conditions: HCT-116 HDAC-Glo I/II luminescence, 2 h; series mostly up to 92.4 µM
From the text: U.S. Tox21 Program National Center for Advancing Translational Sciences [NCATS] NIH Chemical Genomics Center [NCGC] U.S. Environmental Protection Agency [EPA] National Institutes of Environmental Health Sciences [NIEHS] National Toxicology Program [NTP] U.S. Food and Drug Administration [FDA] Tox21 Assay Overview: Histone deacetylases (HDACs) are a group of epigenetic enzymes that regulate gene expression by histone deacetylation. […]
Inconclusive results are not listed. Activity calls are given as the source filed them. Calls follow the shape of the dose curve; as a rule, active = well fitted inhibition curve with a large enough effect in the repeat runs; inconclusive = weak or mixed curves; inactive = flat fitted curve, though single readings scatter.
Thanks in advance; please answer with one of these: active, inactive

{"molecule": "CCCCN1CCCC1C(=O)Nc1c(C)cc(C)cc1C (configuration not stated)", "label": "inactive"}
{"molecule": "CN1C(=O)c2ccccc2C1=O", "label": "inactive"}
{"molecule": "CCOc1ccccc1O[C@H](c1ccccc1)[C@H]1CNCCO1", "label": "inactive"}
{"molecule": "CC(=O)Nc1cc(S(=O)(=O)O)cc2cc(S(=O)(=O)O)c(N=Nc3ccccc3)c(O)c12", "label": "inactive"}
{"molecule": "O=C(O)C[C@H](NC(=O)OCc1ccccc1)C(=O)O", "label": "inactive"}

## Input How did this test come out for O=C1NCCN1CCO ?
## Output inactive

## Input What do we get for COC(=O)[C@H]1[C@H]2C[C@@H]3c4[nH]c5cc(OC)ccc5c4CCN3C[C@H]2C[C@@H](OC(=O)/C=C/c2ccc(O)c(OC)c2)[C@@H]1OC ?
## Output inactive

## Input What do we get for CN1C(C(=O)Nc2ccccn2)=C(O)c2sccc2S1(=O)=O ?
## Output inactive

## Input What do we get for C=C1CCC2CC1C2(C)C (configuration not stated) ?
## Output inactive

## Input What do we get for Cc1[nH]cnc1CN1CCc2c(c3ccccc3n2C)C1=O ?
## Output inactive

## Input What do we get for Nc1ncnc2c1ncn2[C@H]1CC[C@@H](CO)O1 ?
## Output inactive

## Input What do we get for O=C(OCC(O)CO)c1ccccc1Nc1ccnc2cc(Cl)ccc12 (configuration not stated) ?
## Output inactive
